The values you see were collected from ChEMBL document CHEMBL5442334.

system: Histamine H2 receptor (Homo sapiens) (UniProt P25021)
Sequence (P25021 whole entry): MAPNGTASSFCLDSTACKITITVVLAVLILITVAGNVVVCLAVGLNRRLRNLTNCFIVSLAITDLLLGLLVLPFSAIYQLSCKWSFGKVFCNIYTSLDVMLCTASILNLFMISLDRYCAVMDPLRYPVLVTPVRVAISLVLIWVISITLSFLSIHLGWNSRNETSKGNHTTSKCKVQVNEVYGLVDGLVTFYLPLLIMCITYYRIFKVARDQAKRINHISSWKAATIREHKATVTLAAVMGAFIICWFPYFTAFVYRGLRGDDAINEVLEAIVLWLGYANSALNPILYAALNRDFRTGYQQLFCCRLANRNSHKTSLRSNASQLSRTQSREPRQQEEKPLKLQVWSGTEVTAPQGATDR
measurement_notes: SafetyScreen: H2 Human Histamine GPCR Binding Antagonist Radioligand LeadHunter Assay, catalogue number: 1208
condition_details: Test compound concentration 10.0 uM
quantity_measured: inhibition (%)
Response body: numeric value in %, unit text excluded.

Example entries and their recorded answers appear below.
- compound_structure: "Cc1nn(C)cc1-c1cc2c(N[C@H](c3ccc4c(c3)S(=O)(=O)CCC4)C(C)C)ncnc2[nH]1"
  inhibition / %: -4
- compound_structure: "CC(C)[C@H](Nc1ncnc2[nH]ccc12)c1ccc2c(c1)S(=O)(=O)CCC2"
  inhibition / %: -6
- compound_structure: "CNCc1cc(-c2cc3c(N[C@@H](c4ccc5c(c4)S(=O)(=O)CCC5)C(C)C)ncnc3[nH]2)co1"
  inhibition / %: -3
- compound_structure: "Cn1ncc(-c2cc3c(N[C@@H](c4ccc5c(n4)OCCO5)C(C)(C)C)ncnc3[nH]2)c1C#N"
  inhibition / %: -10

Note to self: inhibition of `CC(C)[C@@H](Nc1ncnc2[nH]c(C(=O)N[C@@H]3CCN(C)C3)cc12)c1ccc2c(c1)S(=O)(=O)CCC2` with Histamine H2 receptor (Homo sapiens) (UniProt P25021) was -9

----------
system: UniProtKB P31645
Sequence (P31645 whole entry, looked up): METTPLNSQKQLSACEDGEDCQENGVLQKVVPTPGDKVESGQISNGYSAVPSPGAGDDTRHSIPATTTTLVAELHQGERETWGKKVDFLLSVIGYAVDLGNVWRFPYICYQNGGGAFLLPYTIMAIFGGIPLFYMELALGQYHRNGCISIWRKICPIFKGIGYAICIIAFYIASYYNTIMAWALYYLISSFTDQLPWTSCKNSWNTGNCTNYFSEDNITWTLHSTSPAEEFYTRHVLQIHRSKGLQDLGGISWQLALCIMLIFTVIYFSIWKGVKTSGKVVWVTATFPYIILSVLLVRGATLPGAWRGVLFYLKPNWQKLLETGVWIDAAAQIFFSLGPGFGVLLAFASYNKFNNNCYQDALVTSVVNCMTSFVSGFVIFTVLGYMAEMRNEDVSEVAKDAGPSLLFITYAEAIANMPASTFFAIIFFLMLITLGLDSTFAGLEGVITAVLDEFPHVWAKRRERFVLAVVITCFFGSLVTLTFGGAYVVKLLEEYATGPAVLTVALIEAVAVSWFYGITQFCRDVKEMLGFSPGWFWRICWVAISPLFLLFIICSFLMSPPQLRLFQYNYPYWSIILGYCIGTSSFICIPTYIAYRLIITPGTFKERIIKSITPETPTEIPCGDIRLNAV
measurement_notes: SafetyScreen: SERT Human Serotonin Transporter Binding Antagonist Radioligand LeadHunter Assay, catalogue number: 439
condition_details: Test compound concentration 10.0 uM
Here the recorded inhibition is given for each entry.
Response body: numeric value in %, unit text excluded.

Note to self: inhibition of `Cc1nn(C)cc1-c1cc2c(N[C@H](c3ccc4c(c3)S(=O)(=O)CCC4)C(C)C)ncnc2[nH]1` with UniProtKB P31645 was -4

Note to self: inhibition of `C[C@H](C(=O)O)[C@@H](NC(=O)c1ncnc2[nH]ccc12)c1ccc(Br)cc1` with UniProtKB P31645 was 0

Note to self: inhibition of `CC(C)[C@H](Nc1ncnc2[nH]ccc12)c1ccc2c(c1)S(=O)(=O)CCC2` with UniProtKB P31645 was 0

Note to self: inhibition of `COc1ccc([C@H](Cc2nnn[nH]2)NC(=O)c2ncnc3[nH]ccc23)cc1` with UniProtKB P31645 was -1

Note to self: inhibition of `CC(C)[C@@H](Nc1ncnc2[nH]c(-c3cnn(C)c3C#N)cc12)c1ccc2c(n1)OCCO2` with UniProtKB P31645 was 9

----------
system: Muscarinic acetylcholine receptor M1 (Homo sapiens) (UniProt P11229)
Sequence (whole entry): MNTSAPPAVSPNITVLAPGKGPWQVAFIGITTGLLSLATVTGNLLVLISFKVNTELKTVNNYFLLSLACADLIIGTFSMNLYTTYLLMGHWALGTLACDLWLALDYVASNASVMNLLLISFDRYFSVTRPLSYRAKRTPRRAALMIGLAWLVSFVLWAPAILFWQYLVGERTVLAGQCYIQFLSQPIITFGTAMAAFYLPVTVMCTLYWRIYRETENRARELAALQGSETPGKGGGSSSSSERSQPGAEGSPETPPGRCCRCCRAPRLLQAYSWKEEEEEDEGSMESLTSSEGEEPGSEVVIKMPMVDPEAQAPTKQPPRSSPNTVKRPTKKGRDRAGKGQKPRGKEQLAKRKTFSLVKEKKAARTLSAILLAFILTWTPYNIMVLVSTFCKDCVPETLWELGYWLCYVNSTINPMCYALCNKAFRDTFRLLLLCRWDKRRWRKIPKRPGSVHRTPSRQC
measurement_notes: SafetyScreen: M1 Human Acetylcholine (Muscarinic) GPCR Binding Antagonist Radioligand LeadHunter Assay, catalogue number: 91
condition_details: Test compound concentration 10.0 uM
Here the recorded inhibition is given for each entry.
Response body: numeric value in %, unit text excluded.

- compound_structure: "Cn1ncc(-c2cc3c(N[C@@H](c4ccc5c(n4)OCCO5)C(C)(C)C)ncnc3[nH]2)c1C#N"
  system: "Muscarinic acetylcholine receptor M1 (Homo sapiens) (UniProt P11229)"
  readout_unit: "%"
  measured_number: 13
- compound_structure: "CNCc1cc(-c2cc3c(N[C@@H](c4ccc5c(c4)S(=O)(=O)CCC5)C(C)C)ncnc3[nH]2)co1"
  system: "Muscarinic acetylcholine receptor M1 (Homo sapiens) (UniProt P11229)"
  readout_unit: "%"
  measured_number: 47
- compound_structure: "CC(C)[C@H](Nc1ncnc2[nH]c(-c3cnn(C)c3C#N)cc12)c1ccc2c(n1)OCCO2"
  system: "Muscarinic acetylcholine receptor M1 (Homo sapiens) (UniProt P11229)"
  readout_unit: "%"
  measured_number: 7
- compound_structure: "CC(C)[C@@H](Nc1ncnc2[nH]c(-c3cnn(C)c3C#N)cc12)c1ccc2c(n1)OCCO2"
  system: "Muscarinic acetylcholine receptor M1 (Homo sapiens) (UniProt P11229)"
  readout_unit: "%"
  measured_number: 8
- compound_structure: "CC(C)[C@@H](Nc1ncnc2[nH]c(C(=O)N[C@@H]3CCN(C)C3)cc12)c1ccc2c(c1)S(=O)(=O)CCC2"
  system: "Muscarinic acetylcholine receptor M1 (Homo sapiens) (UniProt P11229)"
  readout_unit: "%"
  measured_number: 17

Measured inhibition, `COc1ccc([C@H](Cc2nnn[nH]2)NC(=O)c2ncnc3[nH]ccc23)cc1` : -4

Measured inhibition, `CNC(=O)Cn1cc(-c2cc3c(N[C@@H](c4ccc5c(c4)S(=O)(=O)CCC5)C(C)C)ncnc3[nH]2)cn1` : 9

Measured inhibition, `CC(C)[C@H](Nc1ncnc2[nH]ccc12)c1ccc2c(c1)S(=O)(=O)CCC2` : 19

Measured inhibition, `C[C@H](C(=O)O)[C@@H](NC(=O)c1ncnc2[nH]ccc12)c1ccc(Br)cc1` : -1

Measured inhibition, `Cc1nn(C)cc1-c1cc2c(N[C@H](c3ccc4c(c3)S(=O)(=O)CCC4)C(C)C)ncnc2[nH]1` : 11

----------
system: Glutamate NMDA receptor (Rattus norvegicus) (UniProt P35439+Q00959+Q00960+Q00961+Q62645+Q8VHN2+Q9R1M7)
measurement_notes: SafetyScreen: Glutamate (NMDA, Non-Selective) Rat Ion Channel [3H] CGP-39653 Binding LeadHunter Assay, catalogue number: 66
Format: protein-complex assay
condition_details: Test compound concentration 10.0 uM
Here the recorded inhibition is given for each entry.
Response body: numeric value in %, unit text excluded.

- compound_structure: "CC(C)[C@@H](Nc1ncnc2[nH]c(C(=O)N[C@@H]3CCN(C)C3)cc12)c1ccc2c(c1)S(=O)(=O)CCC2"
  inhibition, %: 1
- compound_structure: "Cn1ncc(-c2cc3c(N[C@@H](c4ccc5c(n4)OCCO5)C(C)(C)C)ncnc3[nH]2)c1C#N"
  inhibition, %: 11
- compound_structure: "CNCc1cc(-c2cc3c(N[C@@H](c4ccc5c(c4)S(=O)(=O)CCC5)C(C)C)ncnc3[nH]2)co1"
  inhibition, %: -1
- compound_structure: "CC(C)[C@H](Nc1ncnc2[nH]c(-c3cnn(C)c3C#N)cc12)c1ccc2c(n1)OCCO2"
  inhibition, %: 2

Now look at this entry.
Measured inhibition, `COc1ccc([C@H](Cc2nnn[nH]2)NC(=O)c2ncnc3[nH]ccc23)cc1` : 9

----------
system: Prostaglandin G/H synthase 1 (Homo sapiens)
measurement_notes: SafetyScreen: COX1 Human Cyclooxygenase Enzymatic LeadHunter Assay, catalogue number: 4173
Assay type: functional
condition_details: Test compound concentration 10.0 uM
quantity_measured: inhibition (%)
Response body: numeric value in %, unit text excluded.

Example entries and their recorded answers appear below.
- compound_structure: "CNC(=O)Cn1cc(-c2cc3c(N[C@@H](c4ccc5c(c4)S(=O)(=O)CCC5)C(C)C)ncnc3[nH]2)cn1"
  quantity_measured: "inhibition"
  readout_unit: "%"
  measured_number: -8
- compound_structure: "CNCc1cc(-c2cc3c(N[C@@H](c4ccc5c(c4)S(=O)(=O)CCC5)C(C)C)ncnc3[nH]2)co1"
  quantity_measured: "inhibition"
  readout_unit: "%"
  measured_number: -6
- compound_structure: "CC(C)[C@@H](Nc1ncnc2[nH]c(C(=O)N[C@@H]3CCN(C)C3)cc12)c1ccc2c(c1)S(=O)(=O)CCC2"
  quantity_measured: "inhibition"
  readout_unit: "%"
  measured_number: 44
- compound_structure: "C[C@H](C(=O)O)[C@@H](NC(=O)c1ncnc2[nH]ccc12)c1ccc(Br)cc1"
  quantity_measured: "inhibition"
  readout_unit: "%"
  measured_number: 14
- compound_structure: "COc1ccc([C@H](Cc2nnn[nH]2)NC(=O)c2ncnc3[nH]ccc23)cc1"
  quantity_measured: "inhibition"
  readout_unit: "%"
  measured_number: 17

Now look at this entry.
Note to self: inhibition of `CC(C)[C@H](Nc1ncnc2[nH]ccc12)c1ccc2c(c1)S(=O)(=O)CCC2` with Prostaglandin G/H synthase 1 (Homo sapiens) was 85

----------
Here the recorded inhibition is given for each entry.
system: Alpha-1A adrenergic receptor (Homo sapiens)
measurement_notes: SafetyScreen: alpha1A Human Adrenoceptor GPCR Binding Antagonist Radioligand LeadHunter Assay, catalogue number: 2338
condition_details: Test compound concentration 10.0 uM
Response body: numeric value in %, unit text excluded.

Example entries and their recorded answers appear below.
- compound_structure: "CC(C)[C@H](Nc1ncnc2[nH]ccc12)c1ccc2c(c1)S(=O)(=O)CCC2"
  readout_unit: "%"
  inhibition: -2
- compound_structure: "CC(C)[C@@H](Nc1ncnc2[nH]c(C(=O)N[C@@H]3CCN(C)C3)cc12)c1ccc2c(c1)S(=O)(=O)CCC2"
  readout_unit: "%"
  inhibition: 38

Measured inhibition, `CC(C)[C@H](Nc1ncnc2[nH]c(-c3cnn(C)c3C#N)cc12)c1ccc2c(n1)OCCO2` : 34

Measured inhibition, `Cn1ncc(-c2cc3c(N[C@@H](c4ccc5c(n4)OCCO5)C(C)(C)C)ncnc3[nH]2)c1C#N` : 54
